test system: HCV replicon with a R155K mutation in a 1a-H77 background; test: transient replicon assay, R155K mutation in 1a-H77 background; assay type: cell-based, hepatitis C virus (genotype 1a-H77); details: Hepatitis C virus, read-out: EC50 in a transient replicon assay with a R155K mutation in a 1a-H77 background
pEC50: −log10 of the molar value.
Quick reference: pEC50 of the listed items.

- compound: "CCc1nc2ccc(F)cc2nc1O[C@@H]1C[C@H]2C(=O)N[C@]3(C(=O)NS(=O)(=O)C4CC4)C[C@H]3/C=C\\CCCCC[C@H](NC(=O)c3ccon3)C(=O)N2C1 [Example 122]"
  study_system: "HCV replicon with a R155K mutation in a 1a-H77 background"
  pEC50: "8.00 to 9.00"
- compound: "CC(F)(F)c1nc2ccccc2nc1O[C@@H]1C[C@H]2C(=O)N[C@]3(C(=O)NS(=O)(=O)C4CC4)C[C@H]3/C=C\\CCCCC[C@H](NC(=O)c3ccon3)C(=O)N2C1 [Example 3]"
  study_system: "HCV replicon with a R155K mutation in a 1a-H77 background"
  pEC50: "> 9.00"
- compound: "Cc1cc(C(=O)N[C@H]2CCCCC/C=C\\[C@@H]3C[C@@]3(C(=O)NS(=O)(=O)C3(C)CC3)NC(=O)[C@@H]3C[C@@H](Oc4nc5ccccc5nc4C(F)(F)F)CN3C2=O)no1 [Example 17]"
  study_system: "HCV replicon with a R155K mutation in a 1a-H77 background"
  pEC50: "> 9.00"
- compound: "Cc1onc(C(=O)N[C@H]2CCCCC/C=C\\[C@@H]3C[C@@]3(C(=O)NS(=O)(=O)C3CC3)NC(=O)[C@@H]3C[C@@H](Oc4nc5ccccc5nc4C(C)(F)F)CN3C2=O)c1C [Example 6]"
  study_system: "HCV replicon with a R155K mutation in a 1a-H77 background"
  pEC50: "8.00 to 9.00"

[ask] Query (compound): CC(C)(C)C(=O)N[C@H]1CCCCC/C=C\[C@@H]2C[C@@]2(C(=O)NS(=O)(=O)C2CC2)NC(=O)[C@@H]2C[C@@H](Oc3nc4ccccc4nc3C(C)(F)F)CN2C1=O [Example 4] ; field requested: pEC50
[reply] 8.00 to 9.00

[ask] Query (compound): CC1(S(=O)(=O)NC(=O)[C@@]23C[C@H]2/C=C\CCCCC[C@H](NC(=O)c2ccon2)C(=O)N2C[C@H](Oc4nc5cc(F)ccc5nc4C(F)(F)F)C[C@H]2C(=O)N3)CC1 [Example 109] ; field requested: pEC50
[reply] > 9.00

[ask] Query (compound): Cc1cc(C(=O)N[C@H]2CCCCC/C=C\[C@@H]3C[C@@]3(C(=O)NS(=O)(=O)C3(C)CC3)NC(=O)[C@@H]3C[C@@H](Oc4nc5cc(F)ccc5nc4C(F)(F)F)CN3C2=O)no1 [Example 111] ; field requested: pEC50
[reply] > 9.00

[ask] Query (compound): Cc1nc2cccc(F)c2nc1O[C@@H]1C[C@H]2C(=O)N[C@]3(C(=O)NS(=O)(=O)C4CC4)C[C@H]3/C=C\CCCCC[C@H](NC(=O)c3noc(C)c3C)C(=O)N2C1 [Example 57] ; field requested: pEC50
[reply] > 9.00

[ask] Query (compound): CCc1nc2cccc(F)c2nc1O[C@@H]1C[C@H]2C(=O)N[C@]3(C(=O)NS(=O)(=O)C4CC4)C[C@H]3/C=C\CCCCC[C@H](NC(=O)c3noc(C)c3C)C(=O)N2C1 [Example 163] ; field requested: pEC50
[reply] > 9.00

[ask] Query (compound): Cc1nc2ccc(F)cc2nc1O[C@@H]1C[C@H]2C(=O)N[C@]3(C(=O)NS(=O)(=O)C4CC4)C[C@H]3/C=C\CCCCC[C@H](NC(=O)OC(C)(C)C)C(=O)N2C1 [Example 20] ; field requested: pEC50
[reply] > 9.00

[ask] Query (compound): CCc1nc2ccc(F)cc2nc1O[C@@H]1C[C@H]2C(=O)N[C@]3(C(=O)NS(=O)(=O)C4(C)CC4)C[C@H]3/C=C\CCCCC[C@H](NC(=O)OC(C)(C)C)C(=O)N2C1 [Example 125] ; field requested: pEC50
[reply] > 9.00

[ask] Query (compound): Cc1onc(C(=O)N[C@H]2CCCCC/C=C\[C@@H]3C[C@@]3(C(=O)NS(=O)(=O)C3(C)CC3)NC(=O)[C@@H]3C[C@@H](Oc4nc5ccccc5nc4C(C)(F)F)CN3C2=O)c1C [Example 7] ; field requested: pEC50
[reply] 8.00 to 9.00

[ask] Query (compound): Cc1nc2ccc(F)cc2nc1O[C@@H]1C[C@H]2C(=O)N[C@]3(C(=O)NS(=O)(=O)C4(C)CC4)C[C@H]3/C=C\CCCCC[C@H](NC(=O)c3noc(C)c3C)C(=O)N2C1 [Example 24] ; field requested: pEC50
[reply] > 9.00

[ask] Query (compound): Cc1cc(C(=O)N[C@H]2CCCCC/C=C\[C@@H]3C[C@@]3(C(=O)NS(=O)(=O)C3CC3)NC(=O)[C@@H]3C[C@@H](Oc4nc5cc(F)cc(Br)c5nc4C)CN3C2=O)no1 [Example 98] ; field requested: pEC50
[reply] 8.00 to 9.00
